Source listed as paper PMC5756575.

Test system: Salmonella typhimurium TA100
assay notes: S. typhimurium antimutagenicity assay against NQNO
Type: cell-based
assay setup: TA100, compound and NQNO 40 ng/mL
experimental endpoint: % inhibition of NQNO mutagenicity (%)
Write the answer as a number in %, unit excluded.

Examples with answers:
Endpoint output: % inhibition of NQNO mutagenicity of COc1nc2c(c(=O)n(C)c(=O)n2C)n1CCCC(=O)NCc1ccccc1 . Value? 96

Endpoint output: % inhibition of NQNO mutagenicity of COc1nc2c(c(=O)n(C)c(=O)n2C)n1CCCC(=O)N1CCN(c2ccccc2)CC1 . Value? 93

Endpoint output: % inhibition of NQNO mutagenicity of COC(=O)Cn1c(OC)nc2c1c(=O)n(C)c(=O)n2C . Value? 92

Moving on to the next molecule.
Endpoint output: % inhibition of NQNO mutagenicity of COc1nc2c(c(=O)n(C)c(=O)n2C)n1CC(=O)O . Value? 88

====

Entries annotated with measured Number of revertants per plate, Mean ± SD
Tested on: Vibrio harveyi BB7M
assay setup: mutagenicity, 40 ng/mL
Give the figure by itself; no unit, no explanation.

Examples with answers:
Could you share what Number of revertants per plate, Mean ± SD was measured for COc1nc2c(c(=O)n(C)c(=O)n2C)n1CCCC(=O)NCc1ccccc1 , tested on Vibrio harveyi BB7M? 35

Could you share what Number of revertants per plate, Mean ± SD was measured for COC(=O)Cn1c(OC)nc2c1c(=O)n(C)c(=O)n2C , tested on Vibrio harveyi BB7M? 36

Could you share what Number of revertants per plate, Mean ± SD was measured for COc1nc2c(c(=O)n(C)c(=O)n2C)n1CCCC(=O)N1CCN(c2ccccc2)CC1 , tested on Vibrio harveyi BB7M? 42

Moving on to the next compound.
Could you share what Number of revertants per plate, Mean ± SD was measured for COc1nc2c(c(=O)n(C)c(=O)n2C)n1CC(=O)O , tested on Vibrio harveyi BB7M? 33

====

Tested on: Vibrio harveyi BB7X
assay setup: mutagenicity, 40 ng/mL
Method: From them, 0.2 mM working solutions were prepared by dilution with water. […] Working solutions were prepared by 1:100 dilution of stock solution in water, and final compound concentration assayed was 40 ng/mL. […]
Entries annotated with measured Number of revertants per plate, Mean ± SD

Examples with answers:
Could you share what Number of revertants per plate, Mean ± SD was measured for COC(=O)Cn1c(OC)nc2c1c(=O)n(C)c(=O)n2C [Compound 2] , tested on Vibrio harveyi BB7X? 27 ± 2

Could you share what Number of revertants per plate, Mean ± SD was measured for COc1nc2c(c(=O)n(C)c(=O)n2C)n1CCCC(=O)NCc1ccccc1 [Compound 3] , tested on Vibrio harveyi BB7X? 35 ± 4

Could you share what Number of revertants per plate, Mean ± SD was measured for COc1nc2c(c(=O)n(C)c(=O)n2C)n1CC(=O)O [Compound 1] , tested on Vibrio harveyi BB7X? 30 ± 1

Moving on to the next compound.
Could you share what Number of revertants per plate, Mean ± SD was measured for COc1nc2c(c(=O)n(C)c(=O)n2C)n1CCCC(=O)N1CCN(c2ccccc2)CC1 [Compound 4] , tested on Vibrio harveyi BB7X? 27 ± 7

====

Entries annotated with measured Number of revertants per plate, Mean ± SD
System: Salmonella typhimurium TA100
assay notes: S. typhimurium antimutagenicity assay against NQNO
Type: cell-based
assay setup: antimutagenicity, TA100, compound and NQNO 40 ng/mL; NQNO line = NQNO as a single compound
Give the figure by itself; no unit, no explanation.

Examples with answers:
Endpoint output: Number of revertants per plate, Mean ± SD of COc1nc2c(c(=O)n(C)c(=O)n2C)n1CCCC(=O)N1CCN(c2ccccc2)CC1 . Value? 6

Endpoint output: Number of revertants per plate, Mean ± SD of COC(=O)Cn1c(OC)nc2c1c(=O)n(C)c(=O)n2C . Value? 7

Endpoint output: Number of revertants per plate, Mean ± SD of COc1nc2c(c(=O)n(C)c(=O)n2C)n1CCCC(=O)NCc1ccccc1 . Value? 4

Moving on to the next compound.
Endpoint output: Number of revertants per plate, Mean ± SD of COc1nc2c(c(=O)n(C)c(=O)n2C)n1CC(=O)O . Value? 10
